System: CYP1A1/2
Assay: ethoxyresorufin deethylation activity in human hepatic microsome
Conditions: human, microsomes, pH 7.4
Description: 4-2. Effect of the Oxazole Compound (I) on the Enzymatic Activity of Each Molecular Species of Cytochrome P450 (CYP) […] Generated products after the metabolic response were measured by using high performance liquid chromatography after extraction.
quantity.kind: activity at 30 μM (%)
Give just the numeric value; % need not be written.

Entry C[C@]1(COc2ccc(N3CCC(Oc4ccc(OC(F)(F)F)cc4)CC3)cc2)Cn2cc([N+](=O)[O-])nc2O1 [Compound (A-R)] , activity at 30 μM reported as 102

---

system: CYP1A1/2; experiment: ethoxyresorufin deethylation activity in human hepatic microsome; details: human, microsomes, pH 7.4
quantity.kind: activity at 10 μM (%)
Answer with a number only, understood to be in %.

Data point: C[C@]1(COc2ccc(N3CCC(Oc4ccc(OC(F)(F)F)cc4)CC3)cc2)Cn2cc([N+](=O)[O-])nc2O1 [Compound (A-R)] ; activity at 10 μM = 98.4
